Cited source for all entries: patent US20210246204A1

target: T1, histidine-tagged human Siglec-7 (NovoProtein) (human, UniProt Q9Y286 19-353); experiment: BLI, antibody captured
T1 construct: Bought protein; also called recombinant human Siglec-7; recombinant Siglec-7; not shown: histidine tag
T1 sequence (Q9Y286 19-353 limits assumed): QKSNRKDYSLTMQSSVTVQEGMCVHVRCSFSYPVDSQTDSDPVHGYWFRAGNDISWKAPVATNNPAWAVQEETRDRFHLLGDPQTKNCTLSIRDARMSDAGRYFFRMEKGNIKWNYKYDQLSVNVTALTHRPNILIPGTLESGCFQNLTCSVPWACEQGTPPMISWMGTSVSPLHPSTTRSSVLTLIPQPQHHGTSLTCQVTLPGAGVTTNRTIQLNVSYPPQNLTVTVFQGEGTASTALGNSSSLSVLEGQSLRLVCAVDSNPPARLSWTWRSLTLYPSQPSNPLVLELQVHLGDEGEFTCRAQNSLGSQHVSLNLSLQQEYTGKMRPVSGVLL
MEASUREMENT TYPE: fold improvement over S7AB-H8 (fold)

S7AB-H8.10 (antibody, V domains shown) VH: QVQLVQSGAEVKKPGASVKVSCKASGYAFTEAWMNWVRQAPGQGLEWIGRIFPGYGHTNYAQKFQGRATLTEDTSTSTAYMELSSLRSEDTAVYYCARDYSDYYFDYWGQGTLVTVSS VL: DIQMTQSPSSLSASVGDRVTITCRGSQDINTYLNWYQQKPGKAPKLLIYYTSRLHSGVPSRFSGSGSGTDYTLTISSLQPEDFATYYCQQGNTKPWTFGQGTKLEIK    0.6
